Reported kon values for a set of binders
target: T1, Soluble heterodimeric CD3 protein (hCD3-epsilon/hCD3-delta) with a human Fc tag (hFcΔAdp/hFc) or a mouse Fc … (human, UniProt P07766 23-126; P04234 22-105); experiment: SPR Biacore, 25 C, antibody-capture format
T1 construct: also called hCD3ε/δ; not shown: Fc tag: human (hFcΔAdp/hFc); which tag was used in Ta
T1 sequence (P07766 23-126 limits assumed, stated change not applied, chain 1 of 2): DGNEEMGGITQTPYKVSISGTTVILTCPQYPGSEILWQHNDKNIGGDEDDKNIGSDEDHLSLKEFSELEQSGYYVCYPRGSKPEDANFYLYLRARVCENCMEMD
T1 sequence (P04234 22-105 limits assumed, stated change not applied, chain 2 of 2): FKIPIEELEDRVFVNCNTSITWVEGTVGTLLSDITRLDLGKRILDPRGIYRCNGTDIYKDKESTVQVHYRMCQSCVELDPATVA
Please give a number only; it is taken to be in M⁻¹ s⁻¹.

>>> test_result("H2M2691N (antibody, V domains shown, Hybridoma antibody, human variable regions, mouse IgG2 Fc) VH: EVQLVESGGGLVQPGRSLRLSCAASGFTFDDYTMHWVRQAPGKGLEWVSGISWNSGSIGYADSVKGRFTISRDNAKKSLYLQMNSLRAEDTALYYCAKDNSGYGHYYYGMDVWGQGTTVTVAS VL: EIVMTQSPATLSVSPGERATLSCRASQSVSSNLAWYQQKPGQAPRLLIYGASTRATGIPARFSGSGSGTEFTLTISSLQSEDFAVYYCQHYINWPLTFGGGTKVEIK")
10300
>>> test_result("H2M3540N (antibody, V domains shown, Hybridoma antibody, human variable regions, mouse IgG2 Fc) VH: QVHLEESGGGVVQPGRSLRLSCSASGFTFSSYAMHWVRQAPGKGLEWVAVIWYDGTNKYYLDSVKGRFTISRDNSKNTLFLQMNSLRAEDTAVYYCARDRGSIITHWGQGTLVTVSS VL: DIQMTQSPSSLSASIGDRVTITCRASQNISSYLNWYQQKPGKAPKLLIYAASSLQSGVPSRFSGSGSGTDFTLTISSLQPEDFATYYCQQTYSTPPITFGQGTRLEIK")
37700

kon lookup needed for H2M2708N (antibody, V domains shown, Hybridoma antibody, human variable regions, mouse IgG2 Fc) VH: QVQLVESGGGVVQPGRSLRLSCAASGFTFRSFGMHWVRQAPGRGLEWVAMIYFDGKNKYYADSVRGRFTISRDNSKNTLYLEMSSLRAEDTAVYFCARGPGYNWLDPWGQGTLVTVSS VL: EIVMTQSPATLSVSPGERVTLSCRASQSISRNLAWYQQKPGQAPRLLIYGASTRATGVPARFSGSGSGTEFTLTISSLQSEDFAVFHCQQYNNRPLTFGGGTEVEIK , thanks.
69400

Values from patent US20190127480A1
